TGT: HIV-1 JR-CSF Env L416A (HIV-1 (isolate JR-CSF)) (UniProt P20871)
ASSAY_COMMENT: cell-based or functional assay
Listed here: items and their measured Fold IC50 increase relative to wild-type.
Your answer should be a plain number; it is taken to be in fold.

binder PGT-130 (antibody, V domains shown) VH: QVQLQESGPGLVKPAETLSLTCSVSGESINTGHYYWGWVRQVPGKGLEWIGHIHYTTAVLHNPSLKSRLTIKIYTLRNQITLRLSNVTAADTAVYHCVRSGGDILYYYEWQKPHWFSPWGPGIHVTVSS VL: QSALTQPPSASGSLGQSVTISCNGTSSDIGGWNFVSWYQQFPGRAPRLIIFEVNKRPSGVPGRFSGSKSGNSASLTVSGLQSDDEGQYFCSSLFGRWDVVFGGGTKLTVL , Fold IC50 increase relative to wild-type observed: 1

binder PGT-123 (antibody, V domains shown) VH: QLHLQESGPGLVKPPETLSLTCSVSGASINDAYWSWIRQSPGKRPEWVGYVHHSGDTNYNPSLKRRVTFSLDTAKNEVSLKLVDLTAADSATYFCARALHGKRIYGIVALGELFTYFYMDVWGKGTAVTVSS VL: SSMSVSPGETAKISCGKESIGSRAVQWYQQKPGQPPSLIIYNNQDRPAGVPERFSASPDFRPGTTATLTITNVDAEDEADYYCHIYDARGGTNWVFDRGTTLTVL , Fold IC50 increase relative to wild-type observed: 0.9

binder PGT-131 (antibody, V domains shown) VH: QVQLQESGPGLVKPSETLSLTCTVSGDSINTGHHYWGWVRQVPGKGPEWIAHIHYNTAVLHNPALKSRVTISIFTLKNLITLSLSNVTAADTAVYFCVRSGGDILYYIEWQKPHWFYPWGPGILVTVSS VL: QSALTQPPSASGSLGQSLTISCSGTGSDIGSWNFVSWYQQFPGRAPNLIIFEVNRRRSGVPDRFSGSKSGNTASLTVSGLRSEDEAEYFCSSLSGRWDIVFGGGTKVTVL , Fold IC50 increase relative to wild-type observed: 1
